Tested on: BJeLR cells
test-protocol: RSL testing: growth inhibition (alamar blue) in BJeLR cells
Assay type: cell-based
assay-conditions: Homo sapiens, BJeLR; read-out: EC50 (BJELR)
measure-name: pEC50
pEC50 here is simply -log10 of the concentration when that concentration is written in mol/L.

### Prompt Which pEC50 value belongs to CCOc1ccccc1-n1c(C(C)N2CCN(C(=O)COc3ccc(Cl)cc3)CC2)nc2ccccc2c1=O (stereo not shown) [erastin] ?
### Response 5.74

---

test-protocol: in vivo
assay-conditions: male, C57BL6/j, mouse, po, 20 mg/kg, Brain-Plasma Concentration Ratio, individual mice
measure-name: Kp at 2 h

### Prompt Which Kp at 2 h value belongs to CC(C)Oc1ccc(CN2CCNCC2)cc1-n1c(CN2CCN(C(=O)COc3ccc(Cl)cc3)CC2)nc2ccccc2c1=O [PE] ?
### Response 0.01

---

test-protocol: in vivo
assay-conditions: male, C57BL6/j, mouse, po, 20 mg/kg, Brain Concentration, individual mice
measure-name: concentration at 1 h (ng/g)
Provide the reading as a plain figure in ng/g.

### Prompt Which concentration at 1 h value belongs to CC(C)Oc1ccc(CN2CCNCC2)cc1-n1c(CN2CCN(C(=O)COc3ccc(Cl)cc3)CC2)nc2ccccc2c1=O [PE] ?
### Response 10.9

---

test-protocol: in vivo
assay-conditions: male, C57BL6/j, mouse, iv, 20 mg/kg, Brain Concentration, Mean
measure-name: concentration at 12 h
Reply with the number and its unit after it.

### Prompt Which concentration at 12 h value belongs to CC(C)Oc1ccc(CN2CCNCC2)cc1-n1c(CN2CCN(C(=O)COc3ccc(Cl)cc3)CC2)nc2ccccc2c1=O ?
### Response 29.8 ng/g

---

test-protocol: in vivo
assay-conditions: male, C57BL6/j, mouse, iv, 20 mg/kg, Brain Concentration, individual mice
measure-name: concentration at 0.5 h
Reply with the number and its unit after it.

### Prompt Which concentration at 0.5 h value belongs to CC(C)Oc1ccc(CN2CCNCC2)cc1-n1c(CN2CCN(C(=O)COc3ccc(Cl)cc3)CC2)nc2ccccc2c1=O ?
### Response 116 ng/g

---

test-protocol: in vivo
assay-conditions: male, C57BL6/j, mouse, iv, 20 mg/kg, Brain Concentration, individual mice
measure-name: concentration at 1 h (ng/g)
Provide the reading as a plain figure in ng/g.

### Prompt Which concentration at 1 h value belongs to CC(C)Oc1ccc(CN2CCNCC2)cc1-n1c(CN2CCN(C(=O)COc3ccc(Cl)cc3)CC2)nc2ccccc2c1=O ?
### Response 76.6

---

test-protocol: in vivo
assay-conditions: male, C57BL6/j, mouse, iv, 20 mg/kg, Brain-Plasma Concentration Ratio, Mean
measure-name: Kp at 12 h
I'd appreciate a reply containing only the number, no unit.

### Prompt Which Kp at 12 h value belongs to CC(C)Oc1ccc(CN2CCNCC2)cc1-n1c(CN2CCN(C(=O)COc3ccc(Cl)cc3)CC2)nc2ccccc2c1=O ?
### Response 0.44

---

test-protocol: Plasma pharmacokinetics after single IV and PO dose
Type: in vivo, male C57BL6/j mice
assay-conditions: male, C57BL6/j, mouse, plasma, po, 20 mg/kg, PO 20 mg/kg, 12 hr; read-out: Plasma Concentration, Mean
measure-name: concentration at 12 hr (ng/mL)
Provide the reading as a plain figure in ng/mL.

### Prompt Which concentration at 12 hr value belongs to CC(C)Oc1ccc(CN2CCNCC2)cc1-n1c(CN2CCN(C(=O)COc3ccc(Cl)cc3)CC2)nc2ccccc2c1=O ?
### Response 18.8
